Reference source: patent US20100035755A1

- Tested on: Perennial rye grass
- Protocol Notes: Turf grass selectivity, greenhouse pot test
- Assay type: in vivo
- Conditions: 6 g ai/ha, 2 weeks
The following compounds are listed with their measured phytotoxicity (visual assessment 0-10) values.

{"columns": ["Compound", "Test Target", "phytotoxicity (visual assessment 0-10)"],
 "data": [
  ["COc1cc(OC)nc(NC(=O)NS(=O)(=O)c2ncccc2C(F)(F)F)n1 [Control chemical No. 2, Flazasulfuron, reference compound]", "Perennial rye grass", 10],
  ["Cc1cc(C)nc(NC(=O)NS(=O)(=O)c2ccccc2C(O)C(C)F)n1 (stereo not shown)", "Perennial rye grass", 0],
  ["COc1nc(C)nc(NC(=O)NS(=O)(=O)c2cscc2C2(CF)OCCO2)n1", "Perennial rye grass", 5]
]}

Turning to the following compound.
Record CCOC(=O)c1cnn(C)c1S(=O)(=O)NC(=O)Nc1nc(OC)cc(OC)n1 [Control chemical No. 1, Pyrazosulfuron ethyl, reference compound] ; system Perennial rye grass; phytotoxicity (visual assessment 0-10) = 0
